Molecular target: serotoninergic 5-HT1A receptor (Homo sapiens, UniProt P08908)
Sequence (P08908 whole entry): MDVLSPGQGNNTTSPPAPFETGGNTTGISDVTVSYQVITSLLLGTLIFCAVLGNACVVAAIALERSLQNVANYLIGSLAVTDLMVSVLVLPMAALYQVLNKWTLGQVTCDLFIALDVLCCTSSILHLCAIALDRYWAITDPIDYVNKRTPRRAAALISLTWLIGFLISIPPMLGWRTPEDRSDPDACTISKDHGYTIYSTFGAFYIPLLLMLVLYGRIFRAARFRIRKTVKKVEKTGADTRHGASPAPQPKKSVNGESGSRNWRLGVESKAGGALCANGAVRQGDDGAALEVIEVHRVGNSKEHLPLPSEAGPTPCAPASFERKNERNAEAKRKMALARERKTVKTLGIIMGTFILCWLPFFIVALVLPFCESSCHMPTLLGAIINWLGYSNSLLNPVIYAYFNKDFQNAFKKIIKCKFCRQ
Assay: Cellular functional assay, serotoninergic 5-HT1A receptor (agonism/antagonism)
Type: cell-based
Conditions: CHO; read-out: 5-HT1A-antag. [%]
Procedure: The compounds were tested at the concentration of 1×10^−6M. In the Tables ag refers to agonism, and antag to antagonism).
Readout type: inhibition at 1 µM (%)
Report the figure in % without appending any unit label.

Known inhibition at 1 µM results, listed for orientation:
Compound	Assay system	Readout type	Reported result
Cc1cccc(S(=O)(=O)NCCCN2CCC(c3noc4cc(F)ccc34)CC2)c1 [Compound 22]	serotoninergic 5-HT1A receptor (Homo sapiens, UniProt P08908)	inhibition at 1 µM	99
O=S(=O)(NCCCCN1CCN(c2cccc3[nH]ccc23)CC1)c1ccccc1 [Compound 27]	serotoninergic 5-HT1A receptor (Homo sapiens, UniProt P08908)	inhibition at 1 µM	48
O=S(=O)(NCCCCN1CCN(c2cccc3[nH]ccc23)CC1)c1cc2ccc(Cl)cc2s1 [Compound 363]	serotoninergic 5-HT1A receptor (Homo sapiens, UniProt P08908)	inhibition at 1 µM	27

Could you now consider this next compound?
State inhibition at 1 µM (serotoninergic 5-HT1A receptor (Homo sapiens, UniProt P08908)) of O=S(=O)(NCCCCN1CCN(c2nsc3ccccc23)CC1)c1cc2ccccc2s1 [Compound 239] .
58

Data credit: patent US8822517B2
